Recorded values, source PubChem BioAssay (NCI).

# Tested on: NCI-H226 lung
# experiment: NCI-60 one-dose screen, 48 h (100 = growth as untreated, 0 = no growth, -100 = all killed)
# setup-conditions: 10 µM unless noted
The panel holds about 83,000 compounds, 20% with a hit somewhere; the sample as a whole holds those more often.
measured-quantity: growth (%)
Write the value in % as a bare number.

Please review the following examples before continuing.
molecule	growth (%)
Nc1ncnc2c1N=C(c1ccc(F)cc1)CC(c1sc(Cl)nc1Cl)N2 (stereo not given)	90.1
C[C@@H](C[C@H](CC1CC1)c1ccccc1)c1ccc2ccccc2c1	109
COc1ccc(/C=c2\c(=O)n(-c3ccccc3)c3nn4c(=O)c(=O)[nH]nc4n23)cc1	92.8
CCCCN(CCCC)CCC(=O)c1ccc(OC)c2ccccc12	95.7

Shifting focus to the molecule that follows.
For the molecule CCCCn1c(C)nc2cc(Nc3nc(Cl)nc4nc[nH]c34)ccc21 , what growth is on record? 75
